Below: a set of entries, each annotated with reported GI50.
System: CT26
Experiment: Antiproliferative activity against mouse CT26 cells assessed as cell growth inhibition measured after 48 hrs by MTT assay
Assay type: functional

Consider `O=C(CCc1cccc(-c2cnc3[nH]ccc3c2)c1)Nc1ccc(NCCN2CCOCC2)c(C(F)(F)F)c1` . Its measured GI50 is 7.7 µM

Consider `Cc1ccc(NC(=O)Cc2cccc(-c3cnc4[nH]ccc4c3)c2)cc1C(F)(F)F` . Its measured GI50 is > 100 µM

Consider `O=C(NCCc1cccc(-c2cnc3[nH]ccc3c2)c1)c1ccc(Cl)c(C(F)(F)F)c1` . Its measured GI50 is 35.5 µM

* * *

Target: Cyclin-dependent kinase 8 (Homo sapiens)
Sequence (P49336 whole entry): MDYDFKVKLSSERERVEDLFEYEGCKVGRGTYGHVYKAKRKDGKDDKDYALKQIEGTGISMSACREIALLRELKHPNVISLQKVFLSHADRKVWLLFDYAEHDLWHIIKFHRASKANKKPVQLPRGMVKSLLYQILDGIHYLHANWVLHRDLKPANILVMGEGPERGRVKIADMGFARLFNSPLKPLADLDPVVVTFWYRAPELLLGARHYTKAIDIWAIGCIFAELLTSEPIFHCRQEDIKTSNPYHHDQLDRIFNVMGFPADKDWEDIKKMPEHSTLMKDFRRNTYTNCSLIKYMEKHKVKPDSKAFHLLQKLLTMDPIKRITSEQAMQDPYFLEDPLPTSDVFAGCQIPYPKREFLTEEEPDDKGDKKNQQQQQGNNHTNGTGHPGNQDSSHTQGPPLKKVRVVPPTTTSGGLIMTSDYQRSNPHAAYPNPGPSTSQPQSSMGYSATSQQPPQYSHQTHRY
Test: Inhibition of CDK8 (unknown origin) at 200 nM incubated in presence of ATP by ADP-Glo kinase assay relative to control
OBSERVABLE: inhibition
I'd appreciate it if you included the unit after the number.

SMILES STR	READING
O=C(NCCc1cccc(-c2cnc3[nH]ccc3c2)c1)c1cccc(Cl)c1	37.5%
O=C(CCc1cccc(-c2cnc3[nH]ccc3c2)c1)Nc1ccc(NCCN2CCOCC2)c(C(F)(F)F)c1	68.5%
O=C(NCCc1cccc(-c2cnc3[nH]ccc3c2)c1)NCc1ccccc1	12.8%
COc1cccc(NC(=O)NCCc2cccc(-c3cnc4[nH]ccc4c3)c2)c1	52.8%

Measured inhibition for this entry `O=C(NCCc1cccc(-c2cnc3[nH]ccc3c2)c1)Nc1cc(C(F)(F)F)ccc1F` on Cyclin-dependent kinase 8 (Homo sapiens): 49.6%

* * *

Test system: CT26
Assay: Antiproliferative activity against mouse CT26 cells assessed as cell growth inhibition measured after 48 hrs by MTT assay
Type: functional
Below: a set of entries, each annotated with reported GI50.
Report only the number, with the unit µM understood.

SMILES STR	EXPERIMENTAL TARGET	GI50, µM
Cn1ncc2cc(-c3cncc(Cl)c3N3CCC4(CCNC4=O)CC3)ccc21	CT26	11.2
Cc1c(Br)c(Br)c2c3c1nc(N1CCNCC1)n3CCC2	CT26	53.9

Consider `CNC(=O)c1cc(Oc2ccc(NC(=O)Nc3ccc(Cl)c(C(F)(F)F)c3)cc2)ccn1` . Its measured GI50 is 14.7
